Measured values drawn from patent US10092493B2 for this set.

# Tested on: pro-collagen
# EXPERIMENT_SUMMARY: Biosynthesis of collagen (pro-collagen ELISA) in fibroblasts
# Assay type: cell-based, Human
# MEASUREMENT_CONTEXT: 0.5 μM, 48 hours; un-treated control = 100
Reported Collagen biosynthesis is given for each of the following molecules.
TEST_READOUT: Collagen biosynthesis

> print(dat)
                                   molecule           test.readout  meas.value
1  O=C(O[C@@H]1Cc2c(O)cc(O)cc2O[C@H]1c1cc(O)c(O)c(O)c1)c1cc(O)c(O)c(O)c1 [GCG, gallocatechin gallate]  Collagen biosynthesis       157.1
2  O=C(O[C@@H]1Cc2c(O)cc(O)cc2O[C@H]1c1ccc(O)c(O)c1)c1cc(O)c(O)c(O)c1 [CG, catechin gallate]  Collagen biosynthesis       118.9
3  O=C(O[C@@H]1Cc2c(O)cc(O)cc2O[C@@H]1c1ccc(O)c(O)c1)c1cc(O)c(O)c(O)c1 [(−) ECG, epicatechin gallate]  Collagen biosynthesis       124.5
4  O=C(O[C@@H]1Cc2c(O)cc(O)cc2O[C@@H]1c1cc(O)c(O)c(O)c1)c1cc(O)c(O)c(O)c1 [EGCG, epigallocatechin gallate]  Collagen biosynthesis       155.8

###

# TGT: PPAR-α (Peroxisome Proliferator Activated Receptor-alpha) (Homo sapiens, UniProt Q07869)
# Construct: expressed in transfected cells; host or cells: CV-1 monkey kidney epithelial cells (ATCC CCL 70)
# EXPERIMENT_SUMMARY: Activation of PPAR-α, luciferase reporter in CV-1 cells
# Assay type: cell-based
# MEASUREMENT_CONTEXT: 100 μM, 24 hours; negative control and non-treated group = 1.0
TEST_READOUT: PPAR-α activity

> print(dat)
                                   molecule  meas.value
1  Cn1c(=O)c2c(ncn2C)n(C)c1=O [Caffeine, reference compound]         1.6
2  O=c1c(O)c(-c2ccc(O)cc2)oc2cc(O)cc(O)c12 [Kaempferol, kaempferol]         1.4
3  Oc1cc(O)c2c(c1)O[C@H](c1ccc(O)c(O)c1)[C@@H](O)C2 [(+) C, (+)catechin]         1.4

###

# TGT: PPAR-α (Peroxisome Proliferator Activated Receptor-alpha) (Homo sapiens)
# Construct: expressed in transfected cells; host or cells: CV-1 monkey kidney epithelial cells (ATCC CCL 70)
# Sequence (Q07869 1-468): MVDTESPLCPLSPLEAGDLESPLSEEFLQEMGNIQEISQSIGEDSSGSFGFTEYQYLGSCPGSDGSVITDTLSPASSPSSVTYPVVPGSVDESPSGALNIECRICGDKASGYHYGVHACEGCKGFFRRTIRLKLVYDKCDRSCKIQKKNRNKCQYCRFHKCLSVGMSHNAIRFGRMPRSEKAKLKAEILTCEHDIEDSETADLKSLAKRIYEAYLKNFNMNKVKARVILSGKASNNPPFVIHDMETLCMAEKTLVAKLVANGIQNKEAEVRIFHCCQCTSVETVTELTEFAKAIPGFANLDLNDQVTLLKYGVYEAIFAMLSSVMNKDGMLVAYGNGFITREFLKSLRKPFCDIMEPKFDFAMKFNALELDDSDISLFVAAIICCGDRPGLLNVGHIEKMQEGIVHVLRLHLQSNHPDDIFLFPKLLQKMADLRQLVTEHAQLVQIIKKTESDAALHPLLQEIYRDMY
# EXPERIMENT_SUMMARY: Activation of PPAR-α, luciferase reporter in CV-1 cells
# Assay type: cell-based
# MEASUREMENT_CONTEXT: 10 μM, 24 hours; negative control and non-treated group = 1.0
TEST_READOUT: PPAR-α activity

> print(dat)
                                    compound  meas.value
 1   O=c1c(O)c(-c2ccc(O)cc2)oc2cc(O)cc(O)c12         1.7
 2  Cc1cccc(Nc2cc(Cl)nc(SCC(=O)O)n2)c1C [Wy14643, Wy-14,643, reference compound]         3.8
 3  Oc1cc(O)c2c(c1)O[C@H](c1cc(O)c(O)c(O)c1)[C@H](O)C2 [(−) EGC, epigallocatechin]         1.3
 4  O=C(O[C@@H]1Cc2c(O)cc(O)cc2O[C@@H]1c1cc(O)c(O)c(O)c1)c1cc(O)c(O)c(O)c1 [EGCG, epigallocatechin gallate]         1.0
 5  O=c1c(O)c(-c2ccc(O)c(O)c2)oc2cc(O)cc(O)c12         1.7
 6  Oc1cc(O)c2c(c1)OC(c1ccc(O)c(O)c1)C(O)C2 (single isomer, unassigned; (-)) [(−) C, (−)catechin]         1.4
 7  O=C(O)[C@]1(O)C[C@@H](O)[C@@H](O)[C@H](O)C1         1.3
 8  O=c1c(O)c(-c2cc(O)c(O)c(O)c2)oc2cc(O)cc(O)c12         1.7
 9  Cn1c(=O)c2c(ncn2C)n(C)c1=O [Caffeine, reference compound]         1.3
10  Cn1c(=O)c2[nH]cnc2n(C)c1=O [Theophylline, reference compound]         1.4
